The following compounds are shown together with reported DC50 values.
# Test system: CCNK
# assay.method.text: Payload release assay (DC50 readout), CCNK degradation in the presence of recombinant target protein
# Assay type: cell-based
# run.conditions: 0 μM recombinant EGFR T790M L858R; II-series and V-4 (CCNK readout inferred); read-out: DC50 at 0 μM EGFR T790M L858R
experimental.readout: DC50

# smiles.notation, experimental.readout, measurement
data = [
    ("C=C(Cn1c(CNc2nc(N3CCN(C)CC3)nc3c(Br)cnn23)nc2c(F)c(F)ccc21)C(=O)N[C@@H]1CN(c2nc(Nc3cn(C)nc3OC)c3ncn(C)c3n2)C[C@H]1F", "DC50", "5000 to 10000 nM"),
    ("C=C(COC(=O)N1CCN(c2nc(NCc3nc4cc(C)ccc4[nH]3)n3ncc(Br)c3n2)CC1)C(=O)N1C[C@H](COc2nc(Nc3cnn(C)c3)nc3[nH]cc(Cl)c23)[C@@H](OC)C1", "DC50", "250 to 5000 nM"),
    ("C=C(CN1CCN(c2nc(NCc3nc4cc(C)ccc4[nH]3)n3ncc(Br)c3n2)CC1)C(=O)Nc1cccc(-c2cccc3cnc(Nc4ccc(N5CCN(CCO)CC5)c(F)c4F)nc23)c1", "DC50", "250 to 5000 nM"),
    ("C=C(COc1cc(-c2ccccn2)ccc1CNc1nc(N[C@H](CC)CO)nc2c1ncn2C(C)C)C(=O)N[C@@H]1CN(c2nc(Nc3cn(C)nc3OC)c3ncn(C)c3n2)C[C@H]1F", "DC50", "< 250 nM"),
    ("C=C(CN1CCN(c2nc(NCc3nc4cc(C)ccc4[nH]3)n3ncc(Br)c3n2)CC1)C(=O)Nc1cc(Nc2nccc(-c3cn(C)c4ccccc34)n2)c(OC)cc1N(C)CCN(C)C", "DC50", "< 250 nM"),
    ("C=C(COC(=O)n1c(CNc2nc(N3CCNCC3)nc3c(Br)cnn23)nc2cc(C)ccc21)C(=O)N1C[C@H](COc2nc(Nc3cnn(C)c3)nc3[nH]cc(Cl)c23)[C@@H](OC)C1", "DC50", "< 250 nM"),
]

----------
# assay.system: KRAS G12C (Homo sapiens, UniProt P01116, G12C)
# assay.method.text: KRAS G12C nucleotide exchange assay (SOS1-mediated, HTRF)
# run.conditions: 1 hr pre-incubation
# Sequence (P01116 2-169 isoform P01116-2 G12C): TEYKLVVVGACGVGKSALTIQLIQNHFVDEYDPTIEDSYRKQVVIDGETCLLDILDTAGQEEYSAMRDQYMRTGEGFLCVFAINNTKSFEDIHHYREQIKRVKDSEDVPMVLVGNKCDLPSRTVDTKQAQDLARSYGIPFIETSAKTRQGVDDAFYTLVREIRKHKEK
Reported IC50 is given for each of the following molecules.
experimental.readout: IC50

# molecule, measurement
rows = [
    ("C=C(COc1cc(Cl)cc(NC(=O)NCc2ccc3c(c2)CN(C2CCC(=O)NC2=O)C3=O)c1)C(=O)N1CC(n2c(=O)c3cc(-c4cc(O)cc5ccccc45)ccc3n2C)C1 (centres unmarked) [Compound I-57]", "> 10 µM"),
    ("C=C(COc1ccc(CN2C(=O)CCC(N3Cc4cc(CNC(=O)Nc5ccc(C)c(Cl)c5)ccc4C3=O)C2=O)cc1)C(=O)N1CCN(c2nc(OC[C@H]3CCCN3C)nc3c2CCN(c2cccc4cccc(Cl)c24)C3)C[C@@H]1CC#N (stereo in doubt) [Compound I-44]", "0.1 to 5 µM"),
]

----------
# assay.system: KRAS G12C (Homo sapiens, UniProt P01116, G12C)
# assay.method.text: KRAS G12C cellular target engagement assay (SW1573 cells)
# run.conditions: 17 hours, read-out: TE50 (the source's name)
# Description: SW1573 cells (ATCC CRL-2170) were cultured in RPMI 1640 (Gibco A1049101), supplemented with 10% Heat-inactivated FBS (Gibco Cat. #A38400-01) and 1% Penicillin/Streptomycin (Gibco Cat. #15140-122) in an incubator set at 37° C. and 5% CO2. Cells were seeded at 100,000 cells/ml in 1 ml of complete media in a 24-well, tissue culture-treated plate (Falcon 353226) and incubated overnight. […]
# Sequence (P01116 1-188 isoform P01116-2 G12C): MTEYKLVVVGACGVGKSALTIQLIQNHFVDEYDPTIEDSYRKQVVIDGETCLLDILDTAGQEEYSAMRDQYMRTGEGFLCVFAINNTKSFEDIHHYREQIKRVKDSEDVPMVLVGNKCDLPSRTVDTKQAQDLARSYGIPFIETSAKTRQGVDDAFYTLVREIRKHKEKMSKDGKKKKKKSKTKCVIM
pEC50: −log10 of the molar value.

# compound, pEC50
data = [
    ("C=C(COc1ccc(Cl)cc1NC(=O)NCc1ccc2c(c1)CN(C1CCC(=O)NC1=O)C2=O)C(=O)N1CCN(c2nc(OC[C@@H]3CCCN3C)nc3c2CCN(c2cccc4cccc(Cl)c24)C3)C[C@@H]1CC#N (stereo partly drawn)", "5.30 to 6.60"),
    ("C=C(COc1c(Cl)cccc1NC(=O)NCc1ccc2c(c1)CN(C1CCC(=O)NC1=O)C2=O)C(=O)N1CCN(c2nc(OC[C@@H]3CCCN3C)nc3c2CCN(c2cccc4cccc(Cl)c24)C3)C[C@@H]1CC#N (stereo partly drawn)", "5.30 to 6.60"),
    ("C=C(COc1c(CNC(=O)Nc2ccc(C)c(Cl)c2)ccc2c1CN(C1CCC(=O)NC1=O)C2=O)C(=O)N1CCN(c2nc(OC[C@@H]3CCCN3C)nc3c2CCN(c2cccc4cccc(Cl)c24)C3)C[C@@H]1CC#N (stereo partly drawn)", "> 6.60"),
    ("C=C(COc1cc(NC(=O)NCc2ccc3c(c2)CN(C2CCC(=O)NC2=O)C3=O)cc(C(F)(F)F)c1)C(=O)N1CCN(c2nc(OC[C@@H]3CCCN3C)nc3c2CCN(c2cccc4cccc(Cl)c24)C3)C[C@@H]1CC#N (stereo partly drawn)", "5.30 to 6.60"),
    ("C=C(COc1cc(Cl)c(OC)cc1NC(=O)NCc1ccc2c(c1)CN(C1CCC(=O)NC1=O)C2=O)C(=O)N1CCN(c2nc(OC[C@@H]3CCCN3C)nc3c2CCN(c2cccc4cccc(Cl)c24)C3)C[C@@H]1CC#N (stereo partly drawn)", "5.30 to 6.60"),
    ("C=C(COC(=O)NCCc1ccc(Cl)cc1NC(=O)NCc1ccc2c(c1)CN(C1CCC(=O)NC1=O)C2=O)C(=O)N1CCN(c2nc(OC[C@@H]3CCCN3C)nc3c2CCN(c2cccc4cccc(Cl)c24)C3)C[C@@H]1CC#N (stereo partly drawn)", "> 6.60"),
    ("C=C(COc1cc(Cl)cc(NC(=O)NCc2ccc3c(c2)CN(C2CCC(=O)NC2=O)C3=O)c1)C(=O)N1CC2(CC(n3nc(-c4ccc5c(cnn5C)c4)c(-c4c(Cl)c(C)cc5[nH]ncc45)c3C)C2)C1 (stereo not drawn)", "5.00 to 5.30"),
    ("C=C(COc1ccc(Cl)cc1NC(=O)NCc1ccc2c(c1)CN(C1CCC(=O)NC1=O)C2=O)C(=O)N1CC2(CC(n3nc(-c4ccc5c(cnn5C)c4)c(-c4c(Cl)c(C)cc5[nH]ncc45)c3C)C2)C1 (stereo not drawn)", "5.30 to 6.60"),
    ("C=C(COc1cc(C(F)(F)F)c(Cl)cc1NC(=O)NCc1ccc2c(c1)CN(C1CCC(=O)NC1=O)C2=O)C(=O)N1CCN(c2nc(OC[C@@H]3CCCN3C)nc3c2CCN(c2cccc4cccc(Cl)c24)C3)C[C@@H]1CC#N (stereo partly drawn)", "> 6.60"),
    ("C=C(COc1cc(Cl)cc(NC(=O)NCc2cc3c(cc2F)C(=O)N(C2CCC(=O)NC2=O)C3)c1)C(=O)N1CCN(c2nc(OC[C@@H]3CCCN3C)nc3c2CCN(c2cccc4cccc(Cl)c24)C3)C[C@@H]1CC#N (stereo partly drawn)", "5.30 to 6.60"),
    ("C=C(COc1cc(NC(=O)NCc2ccc3c(c2)CN(C2CCC(=O)NC2=O)C3=O)cc(OC)c1)C(=O)N1CC2(CC(n3nc(-c4ccc5c(cnn5C)c4)c(-c4c(Cl)c(C)cc5[nH]ncc45)c3C)C2)C1 (stereo not drawn)", "5.00 to 5.30"),
    ("C=C(COC(=O)NCCCc1ccc(Cl)cc1NC(=O)NCc1ccc2c(c1)CN(C1CCC(=O)NC1=O)C2=O)C(=O)N1CCN(c2nc(OC[C@@H]3CCCN3C)nc3c2CCN(c2cccc4cccc(Cl)c24)C3)C[C@@H]1CC#N (stereo partly drawn)", "> 6.60"),
    ("C=C(COc1cc(NC(=O)NCc2ccc3c(c2)CN(C2CCC(=O)NC2=O)C3=O)cc(F)c1F)C(=O)N1CCN(c2nc(OC[C@@H]3CCCN3C)nc3c2CCN(c2cccc4cccc(Cl)c24)C3)C[C@@H]1CC#N (stereo partly drawn)", "5.00 to 5.30"),
    ("C=C(COc1cc(NC(=O)NCc2ccc3c(c2)CN(C2CCC(=O)NC2=O)C3=O)ccc1OC)C(=O)N1CCN(c2nc(OC[C@@H]3CCCN3C)nc3c2CCN(c2cccc4cccc(Cl)c24)C3)C[C@@H]1CC#N (stereo partly drawn)", "5.30 to 6.60"),
    ("C=C(COC(=O)NCCCc1cc(Cl)cc(NC(=O)NCc2ccc3c(c2)CN(C2CCC(=O)NC2=O)C3=O)c1)C(=O)N1CCN(c2nc(OC[C@@H]3CCCN3C)nc3c2CCN(c2cccc4cccc(Cl)c24)C3)C[C@@H]1CC#N (stereo partly drawn)", "> 6.60"),
    ("C=C(COc1cc(NC(=O)NCc2ccc3c(c2)CN(C2CCC(=O)NC2=O)C3=O)cc(C(F)(F)F)c1)C(=O)N1CC2(CC(n3nc(-c4ccc5c(cnn5C)c4)c(-c4c(Cl)c(C)cc5[nH]ncc45)c3C)C2)C1 (stereo not drawn)", "5.30 to 6.60"),
    ("C=C(COC(=O)NCc1cc(Cl)cc(NC(=O)NCc2ccc3c(c2)CN(C2CCC(=O)NC2=O)C3=O)c1)C(=O)N1CCN(c2nc(OC[C@@H]3CCCN3C)nc3c2CCN(c2cccc4cccc(Cl)c24)C3)C[C@@H]1CC#N (stereo partly drawn)", "> 6.60"),
    ("C=C(COC(=O)c1c(C)csc1NC(=O)NCc1ccc2c(c1)CN(C1CCC(=O)NC1=O)C2=O)C(=O)N1CCN(c2nc(OC[C@@H]3CCCN3C)nc3c2CCN(c2cccc4cccc(Cl)c24)C3)C[C@@H]1CC#N (stereo partly drawn)", "5.00 to 5.30"),
]
